Observed Ki values for Human immunodeficiency virus type 1 protease (Human immunodeficiency virus 1) are listed in what follows.
Give bare numbers, in nM.

// below: answered compounds
[
  {
    "molSmiles": "CC(C)(C)NC(=O)c1cccc(CN2C(=O)N(c3cccc(N)c3)[C@H](Cc3ccccc3)[C@H](O)[C@@H](O)[C@H]2Cc2ccccc2)c1",
    "measured": 0.41
  },
  {
    "molSmiles": "O=C(NCC1CC1)c1cccc(CN2C(=O)N(Cc3cccc(C(=O)NCC4CC4)c3)[C@H](Cc3ccccc3)[C@H](O)[C@@H](O)[C@H]2Cc2ccccc2)c1",
    "measured": 0.741
  },
  {
    "molSmiles": "COc1cccc(N2C(=O)N(Cc3cccc(C(=O)Nc4ccc(C)cn4)c3)[C@H](Cc3ccccc3)[C@H](O)[C@@H](O)[C@H]2Cc2ccccc2)c1",
    "measured": 0.069
  },
  {
    "molSmiles": "Nc1cccc(N2C(=O)N(Cc3cccc(C(=O)Nc4ncc[nH]4)c3)[C@H](Cc3ccccc3)[C@H](O)[C@@H](O)[C@H]2Cc2ccccc2)c1",
    "measured": 0.012
  },
  {
    "molSmiles": "O=C(NCc1ccccc1)c1cccc(CN2C(=O)N(Cc3cccc(C(=O)NCc4ccccc4)c3)[C@H](Cc3ccccc3)[C@H](O)[C@@H](O)[C@H]2Cc2ccccc2)c1",
    "measured": 0.43
  },
  {
    "molSmiles": "O=C1N(Cc2ccc3ccccc3c2)[C@H](Cc2ccccc2)[C@H](O)[C@@H](O)[C@@H](Cc2ccccc2)N1C1CCCC1",
    "measured": 0.28
  },
  {
    "molSmiles": "COc1cc(OC)cc(N2C(=O)N(Cc3cccc(C(=O)Nc4cccc(C)n4)c3)[C@H](Cc3ccccc3)[C@H](O)[C@@H](O)[C@H]2Cc2ccccc2)c1",
    "measured": 0.7
  },
  {
    "molSmiles": "COc1cc(OC)cc(N2C(=O)N(Cc3cccc(C(=O)Nc4ccccn4)c3)[C@H](Cc3ccccc3)[C@H](O)[C@@H](O)[C@H]2Cc2ccccc2)c1",
    "measured": 0.86
  }
]

Need Ki for each of these compounds.
1. COc1cc(OC)cc(N2C(=O)N(Cc3cccc(C(=O)Nc4ccc(C)cn4)c3)[C@H](Cc3ccccc3)[C@H](O)[C@@H](O)[C@H]2Cc2ccccc2)c1
2. N#CCNC(=O)c1cccc(CN2C(=O)N(C(=O)CNC(=O)c3ccccc3)[C@H](Cc3ccccc3)[C@H](O)[C@@H](O)[C@H]2Cc2ccccc2)c1
3. COc1cccc(N2C(=O)N(Cc3cccc(C(=O)Nc4ccccn4)c3)[C@H](Cc3ccccc3)[C@H](O)[C@@H](O)[C@H]2Cc2ccccc2)c1
4. Nc1cccc(N2C(=O)N(Cc3cccc(C(=O)Nc4nc5ccccc5[nH]4)c3)[C@H](Cc3ccccc3)[C@H](O)[C@@H](O)[C@H]2Cc2ccccc2)c1
5. COc1cc(OC)cc(N2C(=O)N(Cc3cccc(C(=O)Nc4cnccn4)c3)[C@H](Cc3ccccc3)[C@H](O)[C@@H](O)[C@H]2Cc2ccccc2)c1

A.
[1.9, 0.024, 0.047, 0.023, 2.51]

###

targetOrSystem: UniProt Q72874
Kindly state pKi for each of the entries shown.
Give bare numbers, as −log10 of the molar value.

[
  {
    "molSmiles": "Nc1cccc(N2C(=O)N(Cc3cccc(C(=O)Nc4cnccn4)c3)[C@H](Cc3ccccc3)[C@H](O)[C@@H](O)[C@H]2Cc2ccccc2)c1",
    "pKi": 10.80
  },
  {
    "molSmiles": "CC(C)(C)CCN1C(=O)N(CCC(C)(C)C)[C@H](Cc2ccccc2)[C@H](O)[C@@H](O)[C@H]1Cc1ccccc1",
    "pKi": 7.44
  }
]

Q. Can you share its pKi? I mean this compound: `O=C(Nc1ccccn1)c1cccc(CN2C(=O)N(c3cccc([N+](=O)[O-])c3)[C@H](Cc3ccccc3)[C@H](O)[C@@H](O)[C@H]2Cc2ccccc2)c1`
A. 10.02

All values here come from ChEMBL document CHEMBL1132660.
